# test: AUC in 129/SvEvBrd x C57BL/6 hybrid mouse at 10 mg/kg
# Type: ADME, organism-based
# Design: dose 10 mg/kg
# conditions used: plasma
result type: AUC (µM·h)

- Nc1nc(N2CCCCC2)nc2c1c(=O)c(C(=O)NCc1ccc(-n3ccnc3)cc1)cn2CC1CCCO1 (stereo unspecified): 1870

----------
The following compounds are listed with their measured Activity values.
# Test system: Mus musculus
# test: Induction of lymphopenia in 129/SvEvBrd x C57BL/6 hybrid mouse assessed as change in circulating lymphocyte level at 100 mg/kg, po administered as single dose after 18 hrs by complete blood count analysis relative to control
# Format: functional
result type: Activity

- CC(=O)c1nc([C@@H](O)[C@H](O)[C@H](O)CO)c(C)[nH]1: -5%
- CC(=O)c1nc([C@@H](O)[C@H](O)[C@H](O)CO)c[nH]1: -41%
- Cc1nc(-c2nc([C@@H](O)[C@H](O)[C@H](O)CO)c[nH]2)cs1: 0%

----------
# test: Permeability across human Caco-2 cell membrane at 20 uM
# Assay type: ADME, cell-based
# conditions used: read-out: permeability
result type: Papp at 20 µM (×10⁻⁶ cm/s)

• Cc1scnc1-c1nc([C@@H](O)[C@H](O)[C@H](O)CO)c[nH]1 = 4.9
• Cn1cnc(-c2nc([C@@H](O)[C@H](O)[C@H](O)CO)c[nH]2)c1 = 26.2
• CC(F)(F)c1nc([C@@H](O)[C@H](O)[C@H](O)CO)c[nH]1 = 11.1
• OC[C@@H](O)[C@@H](O)[C@H](O)c1c[nH]c(-c2ncn(Cc3ccccc3)n2)n1 = 5.1
• OC[C@@H](O)[C@@H](O)[C@H](O)c1c[nH]c(-c2ncc[nH]2)n1 = 25.9
• CC(=O)c1nc([C@@H](O)[C@@H](O)[C@H](O)CO)c[nH]1 = 9.9
• CC(=O)c1nc([C@@H](O)[C@H](O)[C@H](O)CO)c(C)[nH]1 = 9.37
• CC(=O)c1cccc([C@@H](O)[C@H](O)[C@H](O)CO)n1 = 13.4
• OC[C@@H](O)[C@@H](O)[C@H](O)c1c[nH]c(-c2nc[nH]n2)n1 = 1
• CCc1[nH]c(C(C)=O)nc1[C@@H](O)[C@H](O)[C@H](O)CO = 7.93

----------
# test: Bioavailability in 129/SvEvBrd x C57BL/6 hybrid mouse at 10 mg/kg
# Format: ADME, organism-based
# conditions used: in vivo
result type: bioavailability (%)

• Nc1nc(N2CCCCC2)nc2c1c(=O)c(C(=O)NCc1ccc(-n3ccnc3)cc1)cn2CC1CCCO1 (stereo unspecified) = 100

----------
# target: UniProt:Q8R0X7
# Sequence (Q8R0X7 whole entry): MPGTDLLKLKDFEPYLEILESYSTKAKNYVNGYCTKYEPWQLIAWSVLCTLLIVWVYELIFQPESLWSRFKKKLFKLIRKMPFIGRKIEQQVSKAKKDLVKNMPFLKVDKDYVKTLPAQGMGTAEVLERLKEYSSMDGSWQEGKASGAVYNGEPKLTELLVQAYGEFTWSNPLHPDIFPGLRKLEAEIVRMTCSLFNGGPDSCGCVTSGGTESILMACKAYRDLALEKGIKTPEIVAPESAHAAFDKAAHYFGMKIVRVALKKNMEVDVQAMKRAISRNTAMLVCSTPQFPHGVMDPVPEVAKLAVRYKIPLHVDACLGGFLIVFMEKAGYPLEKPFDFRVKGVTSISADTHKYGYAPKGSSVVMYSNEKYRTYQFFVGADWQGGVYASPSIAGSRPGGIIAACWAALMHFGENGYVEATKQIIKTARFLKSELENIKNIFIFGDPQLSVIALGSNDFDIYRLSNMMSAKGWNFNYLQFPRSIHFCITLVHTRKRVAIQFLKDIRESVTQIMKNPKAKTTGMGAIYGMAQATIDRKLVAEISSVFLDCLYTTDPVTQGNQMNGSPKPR
pIC50: −log10 of the molar value.
result type: pIC50

• Nc1nc(N2CCCCC2)nc2c1c(=O)c(C(=O)NCc1ccc(-n3ccnc3)cc1)cn2CC1CCCO1 (stereo unspecified) = 5.68

----------
# test: AUC in 129/SvEvBrd x C57BL/6 hybrid mouse at 100 mg/kg, po
# Assay type: ADME, organism-based
# Parameters: dose 100 mg/kg, route oral
# conditions used: plasma
result type: AUC

* CCCCCCCCCCCC/C=C/C[C@@H](O)[C@H](CO)NCc1c(CO)cnc(C)c1O | < 1 µM·h

----------
# Test system: Mus musculus
# test: Induction of lymphopenia in 129/SvEvBrd x C57BL/6 hybrid mouse assessed as change in circulating lymphocyte level at 100 mg/kg, po administered as single dose after 18 hrs by complete blood count analysis relative to control
# Type: functional
Property: Activity; scope: individual molecules
result type: Activity (%)

* OC[C@@H](O)[C@@H](O)[C@H](O)c1c[nH]c(-c2cnccn2)n1 | -6
* CCc1[nH]c(C(C)=O)nc1[C@@H](O)[C@H](O)[C@H](O)CO | 8
* CC(=O)c1nc([C@@H](O)[C@H](O)[C@H](O)C(=O)N(C)C)c[nH]1 | -15
* OC[C@@H](O)[C@@H](O)[C@H](O)c1c[nH]c(-c2nc[nH]n2)n1 | 7
* OC[C@@H](O)[C@@H](O)[C@H](O)c1c[nH]c(-c2ncn(Cc3ccccc3)n2)n1 | -41

----------
# test: Clearance in 129/SvEvBrd x C57BL/6 hybrid mouse at 1 mg/kg, iv
# Format: ADME, organism-based
# Parameters: dose 1 mg/kg, route intravenous
# conditions used: in vivo
result type: clearance (mL/min/kg)

• CC(=O)c1nc([C@H](O)[C@@H](O)[C@@H](O)CO)c[nH]1 = 6.7
• CC(=O)c1cccc([C@@H](O)[C@H](O)[C@H](O)CO)n1 = 14
• CC(=O)c1nc([C@@H](O)[C@H](O)[C@H](O)CO)c[nH]1 = 2.9
• Cc1nc(-c2nc([C@@H](O)[C@H](O)[C@H](O)CO)c[nH]2)cs1 = 19.4
• CO[C@H](c1c[nH]c(C(C)=O)n1)[C@H](O)[C@H](O)CO = 6.8
• O=C(c1ccccc1)c1nc([C@@H](O)[C@H](O)[C@H](O)CO)c[nH]1 = 13.5

----------
# test: Oral bioavailability in 129/SvEvBrd x C57BL/6 hybrid mouse at 1 mg/kg, iv and 10 mg/kg, po
# Assay type: ADME, organism-based
# conditions used: 129/SvEvBrd x C57BL/6 hybrid, in vivo
Rule: bioavailability under 20% gives Criterion not met, otherwise Criterion met.

* CC(=O)c1nc([C@@H](O)[C@H](O)[C@H](O)CO)c(-c2ccccc2)[nH]1 | Criterion met
* CO[C@H](c1c[nH]c(C(C)=O)n1)[C@H](O)[C@H](O)CO | Criterion met
* Cc1nc(-c2nc([C@@H](O)[C@H](O)[C@H](O)CO)c[nH]2)cs1 | Criterion met
* OC[C@@H](O)[C@@H](O)[C@H](O)c1c[nH]c(-c2ncn(Cc3ccccc3)n2)n1 | Criterion not met
* OC[C@@H](O)[C@@H](O)[C@H](O)c1c[nH]c(-c2ncccn2)n1 | Criterion not met
* CC(=O)c1nc([C@@H](O)[C@H](O)[C@H](O)CO)c[nH]1 | Criterion not met
* CC(=O)c1nc([C@@H](O)[C@H](O)[C@H](O)C(=O)N(C)C)c[nH]1 | Criterion not met

----------
Quick reference: half-life of the listed items.
# test: Half life in 129/SvEvBrd x C57BL/6 hybrid mouse
# Format: ADME, organism-based
# conditions used: in vivo
result type: half-life (h)

* CN(C)C(=O)c1nc([C@@H](O)[C@H](O)[C@H](O)CO)c[nH]1 | 4
* CC(=O)c1nc([C@H](O)[C@@H](O)[C@@H](O)CO)c[nH]1 | 6
* OC[C@@H](O)[C@@H](O)[C@H](O)c1c[nH]c(-c2ncc[nH]2)n1 | 3.2
* CC(O)c1nc([C@@H](O)[C@H](O)[C@H](O)CO)c[nH]1 (some centres not stated) | 4.4
* Cn1cnc(-c2nc([C@@H](O)[C@H](O)[C@H](O)CO)c[nH]2)c1 | 1.6
* CO[C@H](c1c[nH]c(C(C)=O)n1)[C@H](O)[C@H](O)CO | 3.3
* OC[C@@H](O)[C@@H](O)[C@H](O)c1c[nH]c(-c2cnccn2)n1 | 1.9
* OC[C@@H](O)[C@@H](O)[C@H](O)c1c[nH]c(-c2cocn2)n1 | 1.2
* CC(=O)c1nc([C@@H](O)[C@H](O)[C@H](O)CO)cn1C | 2.4
* OC[C@@H](O)[C@@H](O)[C@H](O)c1c[nH]c(-c2ncon2)n1 | 0.7
* CC(=O)c1nc([C@@H](O)[C@H](O)[C@H](O)CO)c[nH]1 | 4.5
* CC(=O)c1cccc([C@@H](O)[C@H](O)[C@H](O)CO)n1 | 2.1
* O=C(c1ccccc1)c1nc([C@@H](O)[C@H](O)[C@H](O)CO)c[nH]1 | 4
* OC[C@@H](O)[C@@H](O)[C@H](O)c1c[nH]c(C(F)(F)C(F)(F)F)n1 | 1.7
* CC(=O)c1nc([C@@H](O)[C@H](O)[C@H](O)C(=O)N(C)C)c[nH]1 | 3.5
* CC(=O)c1nc([C@@H](O)[C@H](O)[C@H](O)CO)c(C)[nH]1 | 6.2
* CC(=O)c1nc([C@@H](O)[C@H](O)[C@H](O)CO)c(-c2ccccc2)[nH]1 | 1.9
* OC[C@@H](O)[C@@H](O)[C@H](O)c1c[nH]c(-c2cscn2)n1 | 4.2
* CC(=O)N/N=C(\C)c1nc([C@@H](O)[C@H](O)[C@H](O)CO)c[nH]1 | 2.6
* Cc1nc(-c2nc([C@@H](O)[C@H](O)[C@H](O)CO)c[nH]2)cs1 | 2.1
* CCc1[nH]c(C(C)=O)nc1[C@@H](O)[C@H](O)[C@H](O)CO | 2.8
* OC[C@@H](O)[C@@H](O)[C@H](O)c1c[nH]c(-c2ncn(Cc3ccccc3)n2)n1 | 2.4
